Source: patent US20260325540A1

pIC50: −log10 of the molar value.
Here's what we have: pIC50 numbers for MERS-CoV 3CLpro (Middle East respiratory syndrome-related coronavirus, UniProt K9N638).

Check out these entries, answers already filled in.
{"STRUCTURE_AS_SMILES": "N#C[C@@H]1C[C@@H]2C(=O)NC[C@@H]2CCCC[C@H](NC(=O)C2CC(F)(F)C2)C(=O)N2C[C@@H]3CCC[C@@H]3[C@H]2C(=O)N1", "TARGET_ENTITY": "MERS-CoV 3CLpro (Middle East respiratory syndrome-related coronavirus, UniProt K9N638)", "pIC50": "6.00 to 7.00"}
{"STRUCTURE_AS_SMILES": "CC1(C)[C@@H]2[C@H]3C(=O)N[C@H](C#N)C[C@@H]4C(=O)NC[C@@H]4CCCC[C@H](NC(=O)C(F)(F)F)C(=O)N3C[C@@H]21", "TARGET_ENTITY": "MERS-CoV 3CLpro (Middle East respiratory syndrome-related coronavirus, UniProt K9N638)", "pIC50": "> 7.00"}
{"STRUCTURE_AS_SMILES": "CC1(C)[C@@H]2[C@H]3C(=O)N[C@H](C#N)C[C@@H]4C(=O)NC[C@@H]4CCCC[C@H](NC(=O)CC4CC(F)(F)C4)C(=O)N3C[C@@H]21", "TARGET_ENTITY": "MERS-CoV 3CLpro (Middle East respiratory syndrome-related coronavirus, UniProt K9N638)", "pIC50": "6.00 to 7.00"}
{"STRUCTURE_AS_SMILES": "CC1(C)[C@@H]2[C@H]3C(=O)N[C@H](C#N)C[C@@H]4C(=O)NC[C@@H]4CCCC[C@H](NC(=O)c4ccc(F)cc4C(F)(F)F)C(=O)N3C[C@@H]21", "TARGET_ENTITY": "MERS-CoV 3CLpro (Middle East respiratory syndrome-related coronavirus, UniProt K9N638)", "pIC50": "> 7.00"}

Request: Value lookup for pIC50; key = CC(C)(C)C(=O)N[C@H]1CCC[C@H]2CCNC(=O)[C@@H]2C[C@@H](C#N)NC(=O)[C@@H]2[C@@H]3[C@H](CN2C1=O)C3(C)C
Response: 6.00 to 7.00

Request: Value lookup for pIC50; key = CC(C)C[C@@H]1NC(=O)CCCCCC[C@H]2CNC(=O)[C@@H]2C[C@@H](C=O)NC1=O
Response: 6.00 to 7.00

Request: Value lookup for pIC50; key = CC(C)(C)OC(=O)N[C@@H]1CCCC[C@H]2CNC(=O)[C@H]2C[C@@H](C#N)NC(=O)[C@@H]2[C@@H]3[C@H](CN2C1=O)C3(C)C
Response: < 4.70

Request: Value lookup for pIC50; key = CC(C)(C)C[C@@H]1NC(=O)[C@@H](NC(=O)c2ccc(F)c(C(F)(F)F)c2)CCCC[C@H]2CNC(=O)[C@H]2C[C@@H](C#N)NC1=O
Response: 6.00 to 7.00

Request: Value lookup for pIC50; key = CC1(C)[C@@H]2[C@H]3C(=O)N[C@H](C#N)C[C@@H]4C(=O)NCC[C@@H]4CCCC[C@H](NC(=O)C45CC(C(F)(F)F)(C4)C5)C(=O)N3C[C@@H]21
Response: > 7.00
